test: Selectivity index, ratio of CC50 for human MT-4 cells to EC50 for HIV-1 infected in MT-4 cells; format: toxicity, cell-based; conditions: read-out: Ratio CC50/EC50
Entries and their selectivity ratio values follow.
Give only the figure.

>  <compound>
N#Cc1ccc(Nc2nccc(N(c3c(F)cc(-c4ccc(C#N)cc4)cc3F)C3CCCC3)n2)cc1

>  <experimental_value>
1930

$$$$

Q) Entry N#Cc1ccc(Nc2nccc(N(CCCF)c3c(F)cc(-c4ccc(C#N)cc4)cc3F)n2)cc1 needs its selectivity ratio filled in; supply it.
A) 8690

Q) // fetch selectivity ratio given entry N#Cc1ccc(Nc2nccc(N(CC(F)F)c3c(F)cc(-c4ccc(C#N)cc4)cc3F)n2)cc1
A) 17700

Q) Hello, please tell me recorded selectivity ratio for this one: N#CCN(c1ccnc(Nc2ccc(C#N)cc2)n1)c1c(F)cc(-c2ccc(C#N)cc2)cc1F
A) 42500

Q) Read the entry CCN(c1ccnc(Nc2ccc(C#N)cc2)n1)c1c(F)cc(-c2ccc(C#N)cc2)cc1F and write its reported selectivity ratio.
A) 11600

Q) Assign selectivity ratio to the following record: N#Cc1ccc(Nc2nccc(N(CCCO)c3c(F)cc(-c4ccc(C#N)cc4)cc3F)n2)cc1
A) 10300

Q) Complete the entry with selectivity ratio for N#Cc1ccc(Nc2nccc(C(C#N)c3ccc(-c4ccc(C#N)cc4)cc3F)n2)cc1 (stereo unspecified)
A) 1360

Q) Dear colleague, please send me the reported selectivity ratio for N#Cc1ccc(Nc2nccc(N(CC(O)CO)c3c(F)cc(-c4ccc(C#N)cc4)cc3F)n2)cc1 (racemic) when you can.
A) 2440

Q) Give recorded selectivity ratio. C=CCN(c1ccnc(Nc2ccc(C#N)cc2)n1)c1c(F)cc(-c2ccc(C#N)cc2)cc1F
A) 28700

Q) Dear colleague, please send me the reported selectivity ratio for N#Cc1ccc(Nc2nccc(N(CCO)c3c(F)cc(-c4ccc(C#N)cc4)cc3F)n2)cc1 when you can.
A) 1060

Q) Given the compound CCC(C)N(c1ccnc(Nc2ccc(C#N)cc2)n1)c1c(F)cc(-c2ccc(C#N)cc2)cc1F (stereo unspecified) , write its reported selectivity ratio.
A) 2410

====

assay: Cytotoxicity against in human MT-4 cells after 5 days by MTT assay; type: cell-based, MT4; details: time 5 day
Listed here: items and their measured CC50 at 120 h.

Look over these answered cases.
>  <smi>
N#Cc1ccc(Nc2nccc(N(CC3CCCC3)c3c(F)cc(-c4ccc(C#N)cc4)cc3F)n2)cc1

>  <experimental_value>
> 247 µM

$$$$
>  <smi>
Cc1cc(/C=C/C#N)cc(C)c1Nc1ccnc(Nc2ccc(C#N)cc2)n1

>  <experimental_value>
> 4 µM

$$$$

Please turn your attention to the following entry.
Q) Answer with the recorded CC50 at 120 h of N#Cc1ccc(Nc2nccc(N(CCCCl)c3c(F)cc(-c4ccc(C#N)cc4)cc3F)n2)cc1 only.
A) > 250 µM

====

target: Human immunodeficiency virus type 1 reverse transcriptase (Human immunodeficiency virus 1, UniProt Q72547, K103N); assay: Inhibition of HIV-1 p66/p51 reverse transcriptase K103N mutant incubated for 40 mins by picogreen dye-based spectrofluorometric analysis
Labelling field: enter condition met if recorded EC50 is less than 70 nM. Enter condition not met if it equals or exceeds that cut-off.

Sample answers from the record:
>  <smi>
CCS(=O)(=O)N(c1ccnc(Nc2ccc(C#N)cc2)n1)c1c(F)cc(-c2ccc(C#N)cc2)cc1F

>  <assigned_category>
condition not met

$$$$
>  <smi>
Cc1cnc(Nc2ccc(C#N)cc2)nc1Nc1c(F)cc(-c2ccc(C#N)cc2)cc1F

>  <assigned_category>
condition met

$$$$
>  <smi>
COCN(c1ccnc(Nc2ccc(C#N)cc2)n1)c1c(F)cc(-c2ccc(C#N)cc2)cc1F

>  <assigned_category>
condition met

$$$$
>  <smi>
N#Cc1ccc(Nc2nccc(N(CCCO)c3c(F)cc(-c4ccc(C#N)cc4)cc3F)n2)cc1

>  <assigned_category>
condition met

$$$$
>  <smi>
N#Cc1ccc(Nc2nccc(N(CCF)c3c(F)cc(-c4ccc(C#N)cc4)cc3F)n2)cc1

>  <assigned_category>
condition not met

$$$$

Q) Problem: For the compound N#CCN(c1ccnc(Nc2ccc(C#N)cc2)n1)c1c(F)cc(-c2ccc(C#N)cc2)cc1F , is EC50 under 70 nM?
A) condition met

Q) Determine if N#Cc1ccc(Nc2nccc(N(CCO)c3c(F)cc(-c4ccc(C#N)cc4)cc3F)n2)cc1 shows EC50 strictly lower than 70 nM.
A) condition met

Q) Hi there! Is EC50 for CCCN(c1ccnc(Nc2ccc(C#N)cc2)n1)c1c(F)cc(-c2ccc(C#N)cc2)cc1F below 70 nM, do you know?
A) condition not met

====

test: Selectivity index, ratio of CC50 for cytotoxicity against human MT-4 cells to EC50 for inhibition of HIV-1 p66/51 reverse transcriptase Y181C mutant; format: toxicity, cell-based; conditions: read-out: Ratio CC50/EC50
attribute_measured: selectivity ratio

>  <smi>
Cc1cnc(Nc2ccc(C#N)cc2)nc1Nc1c(F)cc(-c2ccc(C#N)cc2)cc1F

>  <selectivity ratio>
> 25500

$$$$
>  <smi>
CC(=O)N(c1ccnc(Nc2ccc(C#N)cc2)n1)c1c(F)cc(-c2ccc(C#N)cc2)cc1F

>  <selectivity ratio>
> 9800

$$$$

Q) Please give measured selectivity ratio of the following entry: CCS(=O)(=O)N(c1ccnc(Nc2ccc(C#N)cc2)n1)c1c(F)cc(-c2ccc(C#N)cc2)cc1F
A) > 2110

====

test: Cytotoxicity against in human MT-4 cells after 5 days by MTT assay; assay type: cell-based, MT4; conditions: time 5 day
attribute_measured: CC50 at 120 h

Answered examples (6):
>  <compound>
N#Cc1ccc(Nc2nccc(/C(=N/O)c3ccc(-c4ccc(F)cc4)cc3F)n2)cc1

>  <attribute_measured>
CC50 at 120 h

>  <experimental_value>
> 292 µM

$$$$
>  <compound>
Cc1ccnc2c1NC(=O)c1cccnc1N2C1CC1

>  <attribute_measured>
CC50 at 120 h

>  <experimental_value>
> 15 µM

$$$$
>  <compound>
CC(=O)N(c1ccnc(Nc2ccc(C#N)cc2)n1)c1c(F)cc(-c2ccc(C#N)cc2)cc1F

>  <attribute_measured>
CC50 at 120 h

>  <experimental_value>
> 268 µM

$$$$
>  <compound>
CCS(=O)(=O)N(c1ccnc(Nc2ccc(C#N)cc2)n1)c1c(F)cc(-c2ccc(C#N)cc2)cc1F

>  <attribute_measured>
CC50 at 120 h

>  <experimental_value>
> 125 µM

$$$$
>  <compound>
CCC(C)CN(c1ccnc(Nc2ccc(C#N)cc2)n1)c1c(F)cc(-c2ccc(C#N)cc2)cc1F (configuration not stated)

>  <attribute_measured>
CC50 at 120 h

>  <experimental_value>
> 255 µM

$$$$
>  <compound>
Cc1cc(C#N)cc(C)c1Oc1nc(Nc2ccc(C#N)cc2)nc(N)c1Br

>  <attribute_measured>
CC50 at 120 h

>  <experimental_value>
> 4.6 µM

$$$$

Continue with the next compound.
Q) Kindly indicate its recorded CC50 at 120 h. Item: Cc1cnc(Nc2ccc(C#N)cc2)nc1Nc1c(F)cc(-c2ccc(C#N)cc2)cc1F
A) > 285 µM

====

assay: Selectivity index, ratio of CC50 for cytotoxicity against human MT-4 cells to EC50 for inhibition of HIV-1 p66/51 reverse transcriptase K103N mutant; assay type: toxicity, cell-based; conditions: read-out: Ratio CC50/EC50
attribute_measured: selectivity ratio
// return a plain number; no unit text

Q) For the compound N#Cc1ccc(Nc2nccc(N(CCCO)c3c(F)cc(-c4ccc(C#N)cc4)cc3F)n2)cc1 , give its measured selectivity ratio value.
A) 1270

Q) Look up and report measured selectivity ratio for this entry: C=CCN(c1ccnc(Nc2ccc(C#N)cc2)n1)c1c(F)cc(-c2ccc(C#N)cc2)cc1F
A) 5380

Q) Read the entry CCCN(c1ccnc(Nc2ccc(C#N)cc2)n1)c1c(F)cc(-c2ccc(C#N)cc2)cc1F and write its reported selectivity ratio.
A) 1960

Q) For the compound N#Cc1ccc(Nc2nccc(N(CCO)c3c(F)cc(-c4ccc(C#N)cc4)cc3F)n2)cc1 , report selectivity ratio.
A) 146

Q) Determine its reported selectivity ratio: N#CCN(c1ccnc(Nc2ccc(C#N)cc2)n1)c1c(F)cc(-c2ccc(C#N)cc2)cc1F
A) 5740

Q) Supply reported selectivity ratio belonging to this compound: COCN(c1ccnc(Nc2ccc(C#N)cc2)n1)c1c(F)cc(-c2ccc(C#N)cc2)cc1F
A) 4630

====

assay: Selectivity index, ratio of CC50 for human MT-4 cells to EC50 for HIV-1 infected in MT-4 cells; type: toxicity, cell-based; conditions: read-out: Ratio CC50/EC50
attribute_measured: selectivity ratio

Q) Give the reported value of selectivity ratio for this record: Cc1cnc(Nc2ccc(C#N)cc2)nc1Nc1c(F)cc(-c2ccc(C#N)cc2)cc1F
A) > 208000

====

assay: Selectivity index, ratio of CC50 for cytotoxicity against human MT-4 cells to EC50 for inhibition of HIV-1 p66/51 reverse transcriptase K103N mutant; format: toxicity, cell-based; conditions: read-out: Ratio CC50/EC50
attribute_measured: selectivity ratio

Sample answers from the record:
>  <smi>
CC(=O)N(c1ccnc(Nc2ccc(C#N)cc2)n1)c1c(F)cc(-c2ccc(C#N)cc2)cc1F

>  <experimental_value>
> 24500

$$$$
>  <smi>
Cc1cnc(Nc2ccc(C#N)cc2)nc1Nc1c(F)cc(-c2ccc(C#N)cc2)cc1F

>  <experimental_value>
> 53200

$$$$

Moving on to another molecule below.
Q) In one line, give reported selectivity ratio of the entry CCS(=O)(=O)N(c1ccnc(Nc2ccc(C#N)cc2)n1)c1c(F)cc(-c2ccc(C#N)cc2)cc1F .
A) > 3090
